attribute.measured: melting point

Record request: melting point value, item COc1ccc(C2C(C#N)=C(N)OC(c3cc4ccccc4oc3=O)=C2C#N)cc1 (centres unmarked) [Compound 10b]
113 to 115 °C

Give the measured melting point of N#CC1=C(N)OC(c2cc3ccccc3oc2=O)=C(Br)C1c1ccccc1 (centres unmarked) .
140 to 142 °C

GET /values?readout=melting point&item= N#CC1=C(N)NC(c2cc3ccccc3oc2=O)=C(C#N)C1c1ccccc1 (centres unmarked) [Compound 11a]
133 to 135 °C

Given the entry N#CC1=C(N)OC(c2cc3ccccc3oc2=O)=C(C#N)C1c1ccccc1 (centres unmarked) [Compound 10a] , report its measured melting point.
173 to 175 °C

What value of measured melting point is listed for N#CC1=C(N)NC(c2cc3ccccc3oc2=O)=C(Br)C1c1ccco1 (centres unmarked) ?
205 to 207 °C

Would you mind telling me what melting point value was observed for Nc1cc(-c2cc3ccccc3oc2=O)n[nH]1 ?
218 to 220 °C

Any idea what melting point was measured for N#CC1=C(N)NC(c2cc3ccccc3oc2=O)=C(C#N)C1c1ccc(Cl)cc1 (centres unmarked) [Compound 11c] ?
197 to 199 °C

Would you kindly share the measured melting point for COc1ccc(-n2cc(-c3cc4ccccc4oc3=O)sc2=Nc2ccccc2)cc1 ?
103 to 105 °C

Entry O=c1oc2ccccc2cc1-c1cn(-c2ccc(Cl)cc2)c(=Nc2ccccc2)s1 : reported melting point = ?
123 to 125 °C

What value of melting point has been reported for the following molecule? N#CC(C#N)=C(CO)c1cc2ccccc2oc1=O
162 to 164 °C

Which melting point reading was recorded for the molecule N#Cc1c(N)sc(Br)c1-c1cc2ccccc2oc1=O ?
180 to 182 °C

// melting point lookup, key: COc1ccc(C2C(Br)=C(c3cc4ccccc4oc3=O)NC(N)=C2C#N)cc1 (centres unmarked)
164 to 166 °C

Value lookup for melting point; key = N#CC1=C(N)OC(c2cc3ccccc3oc2=O)=C(C#N)C1c1ccco1 (centres unmarked) [Compound 10d]
133 to 135 °C

May I ask what melting point has been recorded for N#CC1=C(N)OC(c2cc3ccccc3oc2=O)=C(Br)C1c1ccc(Cl)cc1 (centres unmarked) ?
178 to 180 °C

Could you share which melting point value was measured for N#CC1=C(N)OC(c2cc3ccccc3oc2=O)=C(Br)C1c1ccco1 (centres unmarked) ?
148 to 150 °C

Query: melting point; subject: COc1ccc(C2C(Br)=C(c3cc4ccccc4oc3=O)OC(N)=C2C#N)cc1 (centres unmarked)
193 to 195 °C

Bench note: what melting point did N#CC1=C(N)OC(c2cc3ccccc3oc2=O)=C(C#N)C1c1ccc(Cl)cc1 (centres unmarked) [Compound 10c] show?
178 to 180 °C

What melting point value was documented for this molecule, Nc1cc(-c2cc3ccccc3oc2=O)nn1-c1ccccc1 ?
158 to 160 °C

Using the record for O=C(C(Br)=NNc1ccccc1)c1cc2ccccc2oc1=O , report its melting point.
88 to 90 °C

Data request, read-out melting point, for N#CC1=C(N)NC(c2cc3ccccc3oc2=O)=C(C#N)C1c1ccco1 (centres unmarked) [Compound 11d]
168 to 170 °C

Look at this molecule and give its reported melting point. N#CC1=C(N)NC(c2cc3ccccc3oc2=O)=C(Br)C1c1ccccc1 (centres unmarked)
171 to 173 °C

GET /values?readout=melting point&item= CCOC(=O)c1c(N)sc(Br)c1-c1cc2ccccc2oc1=O
177 to 179 °C

Item under review: O=c1oc2ccccc2cc1-c1cn(-c2ccccc2)c(=Nc2ccccc2)s1 . Reported melting point?
158 to 160 °C

# get_value(readout='melting point', item= Cc1ccc(-n2cc(-c3cc4ccccc4oc3=O)sc2=Nc2ccccc2)cc1 )
99 to 101 °C

Give its melting point value. Item: N#CC1=C(N)NC(c2cc3ccccc3oc2=O)=C(Br)C1c1ccc(Cl)cc1 (centres unmarked)
206 to 208 °C

Quick check: melting point of COc1ccc(C2C(C#N)=C(N)NC(c3cc4ccccc4oc3=O)=C2C#N)cc1 (centres unmarked) [Compound 11b] ?
99 to 101 °C

---

- method.notes: In vitro cytotoxicity against normal fibroblast cells WI38
- Type: cell-based
- run.parameters: human, concentration producing 50% reduction in cell growth
IC50 under 600 nM gets Met, anything at or over 600 nM gets Not met.

Lab log: compare recorded IC50 with 600 nM; is it strictly lower for COc1ccc(-n2cc(-c3cc4ccccc4oc3=O)sc2=Nc2ccccc2)cc1 ?
Met

Is IC50 of O=c1oc2ccccc2cc1-c1cn(-c2ccccc2)c(=Nc2ccccc2)s1 strictly below 600 nM?
Not met

Is IC50 strictly under 600 nM for the entry N#CC1=C(N)NC(c2cc3ccccc3oc2=O)=C(C#N)C1c1ccco1 (stereo not shown) [Compound 11d] ?
Not met

Does the reported IC50 of the following molecule sit strictly below 600 nM? N#CC1=C(N)NC(c2cc3ccccc3oc2=O)=C(C#N)C1c1ccccc1 (stereo not shown) [Compound 11a]
Met

Please determine if Cc1ccc(-n2cc(-c3cc4ccccc4oc3=O)sc2=Nc2ccccc2)cc1 is below 600 nM in terms of IC50.
Met

Criterion: IC50 strictly below 600 nM. Is it met by O=c1oc2ccccc2cc1-c1cn(-c2ccc(Cl)cc2)c(=Nc2ccccc2)s1 ?
Not met

I'd appreciate it if you could check whether COc1ccc(C2C(Br)=C(c3cc4ccccc4oc3=O)OC(N)=C2C#N)cc1 (stereo not shown) has IC50 smaller than 600 nM.
Met
